- Test system: Heart
- experimental details: Intraventricular conduction time in spontaneously beating Langendorff-perfused guinea pig heart at 1 uM
- Type: functional, Cavia porcellus
Criterion: Activity strictly under 30 ms. Met: criterion met. Not met: criterion not met.

Cc1cc(N)cc(C)c1OC[C@@H]1CCCN2CCCC[C@H]12 :: criterion not met
C=C[C@H]1CN2CC[C@H]1C[C@@H]2[C@@H](O)c1ccnc2ccc(OC)cc12 :: criterion not met

Task: I wonder whether `CC(=O)Nc1ccc(C(=O)NC[C@@H]2CCCN3CCCC[C@H]23)cc1` has Activity below 30 ms. Can you tell?
Result: criterion not met

Task: I wonder whether `CCCCc1oc2ccccc2c1C(=O)c1cc(I)c(OCCN(CC)CC)c(I)c1` has Activity below 30 ms. Can you tell?
Result: criterion met
